Listed here: items and their measured growth.
test system: M14 melanoma; test: NCI-60 one-dose screen, 48 h (100 = growth as untreated, 0 = no growth, -100 = all killed); details: 10 µM unless noted
The panel holds about 83,000 compounds, 20% with a hit somewhere; the sample as a whole holds those more often.
Give just the number in %; leave the unit off.

# count of solved cases: 3
COMPOUND	QUANTITY UNIT	growth
Cc1ccc2c(c1)n([O-])c1cc(Cl)ccc1[n+]2=O	%	99
OC(c1cc(-c2ccccc2)nc2ccc(Cl)cc12)C1CCCCN1 (centres undefined)	%	-66.3
O=C(Nc1ccc(F)cc1)Nc1ccc(CCO)cc1	%	117

The recorded growth for entry CN1CCN(Cc2ccc(NC(=O)c3[nH]ncc3Nc3ncnc4c3CCC4)cc2)CC1 equals 21.7

The recorded growth for entry Cc1ccc(SCN2CCN(c3cccc(Cl)c3)CC2)cc1 equals 96.9

The recorded growth for entry CN1CCN(Cc2ccc(NC(=O)c3cncc(C#Cc4c(N)ncc5ccc(C#N)cc45)c3)cc2C(F)(F)F)CC1 equals -45.5

The recorded growth for entry Cc1ccc(Nc2nc(N)nc(Nc3ccc4ccccc4c3)n2)cc1 equals 44

The recorded growth for entry O=C1C[C@H](Sc2nc(-c3ccc(F)cc3)cc(C(F)(F)F)n2)[C@H]2CO[C@@H]1O2 equals 97.8

The recorded growth for entry COc1ccc(C(=O)/C=C/c2c(Cl)c3c(c(OC)c2Cl)OCC(=O)N3)cc1 equals 17.7

The recorded growth for entry CN1CCCCC1CCN1c2ccccc2Sc2ccc(Br)cc21 (centres undefined) equals 49.1

The recorded growth for entry Oc1ccc(Nc2nccc(-c3ccc4ccccc4c3)n2)cc1 equals 11.1
